- System: HT-29 cells
- Measurement protocol: Viability / proliferation assay in HT-29 cells (cell counting)
- Test settings: HT-29 cells, remaining surviving cells
Outcome measure: Residual viability (%)
The reply should contain only the number, in %.

Take a look at these entries with their results.
1) O=C(O)[C@H](CCCc1ccc(Cl)cc1)Oc1ccc(Cl)cc1 [(S)-3] | 31
2) O=C(O)C(CCCc1ccccc1)Oc1ccc(Cl)cc1 (racemic) [(R,S)-2] | 70
3) O=C(O)C(CCCCc1ccccc1)Oc1ccc(Cl)cc1 (racemic) [(R,S)-4] | 60

With those in mind, consider the next molecule.
Using the record for O=C(O)[C@@H](CCc1ccccc1)Oc1ccc(Cl)cc1 [(R)-1] , report its Residual viability.
77

====

- Subject of test: PPARγ1 (Homo sapiens, UniProt P37231)
- Construct: a fixed and higher amount of an exogenous, full length PPARγ1
- Sequence (P37231 29-505): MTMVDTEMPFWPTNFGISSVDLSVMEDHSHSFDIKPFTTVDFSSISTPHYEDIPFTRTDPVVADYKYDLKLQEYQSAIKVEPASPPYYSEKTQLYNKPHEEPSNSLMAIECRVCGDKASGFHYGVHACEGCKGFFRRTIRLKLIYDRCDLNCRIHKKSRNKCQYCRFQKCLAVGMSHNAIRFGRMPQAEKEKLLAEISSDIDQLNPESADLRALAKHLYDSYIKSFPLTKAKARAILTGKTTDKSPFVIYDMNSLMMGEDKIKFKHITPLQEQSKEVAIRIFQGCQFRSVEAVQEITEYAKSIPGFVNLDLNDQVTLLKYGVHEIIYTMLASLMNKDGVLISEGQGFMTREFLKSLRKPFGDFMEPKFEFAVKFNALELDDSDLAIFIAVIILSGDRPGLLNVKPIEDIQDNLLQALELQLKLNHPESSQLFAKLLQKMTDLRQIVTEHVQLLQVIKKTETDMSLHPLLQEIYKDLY
- Measurement protocol: PPRE-Luciferase reporter transactivation in HEK293 cells expressing PPARγ1
- Test settings: PPARγ transactivation, PPRE-Luc reporter, HEK293 expressing PPARγ1, 24 hs treatment
Recorded EC50 values for a group of molecules are listed next.
The reply should contain only the number, in nM.

Take a look at these entries with their results.
1) O=C(O)C(CCCc1ccccc1)Oc1ccc(Cl)cc1 (racemic) [(R,S)-2] | 540
2) O=C(O)C(CCCCc1ccccc1)Oc1ccc(Cl)cc1 (racemic) [(R,S)-4] | 350
3) O=C(O)[C@H](CCCc1ccc(Cl)cc1)Oc1ccc(Cl)cc1 [(S)-3] | 400

With those in mind, consider the next molecule.
Using the record for O=C(O)[C@@H](CCc1ccccc1)Oc1ccc(Cl)cc1 [(R)-1] , report its EC50.
640
